# Tested on: PC-3
# experimental-protocol: NCI tumour cell line growth inhibition, 48 h
Calls of active or inactive are those of the source. Rule as the data show it: active = GI50 up to about 1.1 µM and inactive = higher.
Entries and their GI50

compound="COC(=O)C1=C(O)C(C(=O)OC)[C@@]2(O)[C@@H](C(=O)OC)C(c3ccc(OC(=O)/C(=C/c4ccccc4)c4ccccc4)cc3)C[C@@H]1[C@@H]2C(=O)OC (some centres undefined)" endpoint=GI50 result="32.5 µM (inactive)"
compound="CC(C)C1OC(=O)C=C1Sc1ccccc1 (centres undefined)" endpoint=GI50 result="> 100 µM (inactive)"
compound="COc1ccc(Br)c2c1CC(C(=O)O)CC2 (centres undefined)" endpoint=GI50 result="> 100 µM (inactive)"

For the next question, use this compound.
// query // GI50 lookup, key: OCCNCNc1nc(NCNCCO)nc(N(CNCCO)CNCCO)n1
// result 22.3 µM (inactive)
